Origin of measurements: ChEMBL document CHEMBL2218924

Molecular target: SRSF protein kinase 2 (Homo sapiens) (UniProt P78362)
Sequence (P78362 whole entry, looked up): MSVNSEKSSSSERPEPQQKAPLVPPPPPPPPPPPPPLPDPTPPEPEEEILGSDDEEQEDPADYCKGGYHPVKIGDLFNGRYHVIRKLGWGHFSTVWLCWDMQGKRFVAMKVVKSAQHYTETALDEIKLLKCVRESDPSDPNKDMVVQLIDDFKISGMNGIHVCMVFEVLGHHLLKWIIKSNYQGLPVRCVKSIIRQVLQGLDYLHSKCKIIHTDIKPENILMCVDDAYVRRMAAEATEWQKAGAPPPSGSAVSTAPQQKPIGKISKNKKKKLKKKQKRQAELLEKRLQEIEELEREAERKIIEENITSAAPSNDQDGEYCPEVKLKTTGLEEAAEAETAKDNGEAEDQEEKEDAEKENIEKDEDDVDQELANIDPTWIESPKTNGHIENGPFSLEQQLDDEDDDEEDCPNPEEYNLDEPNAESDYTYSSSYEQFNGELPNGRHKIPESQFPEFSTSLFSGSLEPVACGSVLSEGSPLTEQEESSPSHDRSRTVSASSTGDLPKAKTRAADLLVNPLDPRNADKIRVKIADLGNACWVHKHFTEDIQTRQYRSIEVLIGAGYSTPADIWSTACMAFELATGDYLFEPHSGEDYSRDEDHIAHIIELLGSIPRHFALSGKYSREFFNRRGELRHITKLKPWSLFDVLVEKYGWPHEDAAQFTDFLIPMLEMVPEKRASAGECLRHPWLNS
Settings: at 10 µM
property label: residual activity (%)
One number for each entry, in %.

These solved cases illustrate the format of a correct answer.
Cc1cncc2cccc(S(=O)(=O)N3CCCN(C(=O)CN)C[C@H]3C)c12    94
Nc1n[nH]c2nnc(-c3c(-c4ccccc4)nn4ccccc34)cc12    83
Nc1nc(Nc2ccc(S(N)(=O)=O)cc2)nn1C(=S)Nc1c(F)cccc1F    -3
CO[C@H]1C[C@@H]2CC[C@@H](C)[C@@](O)(O2)C(=O)C(=O)N2CCCC[C@H]2C(=O)O[C@H]([C@H](C)C[C@@H]2CC[C@@H](O)[C@H](OC)C2)CC(=O)[C@H](C)/C=C(\C)[C@@H](O)[C@@H](OC)C(=O)[C@H](C)C[C@H](C)/C=C/C=C/C=C/1C    92
CCC(=O)Nc1ccc2ncnc(Nc3cccc(Br)c3)c2c1    74
CCN(CC)CCCCN1c2ccccc2Oc2ccc(Cl)cc21    82
COc1ccc(C(=O)Nc2sc3c(c2C(N)=O)CCCC3)cc1OC    89
CCOc1cc2ncnc(Nc3cccc(Br)c3)c2cc1OCC    91
CC(C)n1cnc2/c(=N/c3cccc(Cl)c3)nc(NCCO)[nH]c21    2
O=C1NC(=O)c2cc(Nc3ccc(F)cc3)c(Nc3ccc(F)cc3)cc21    95

Consider the following items and state reported residual activity for each.
1. COc1ccc(CNc2nc(N(CCO)CCO)nc3c2ncn3C(C)C)cc1
2. Ic1cccc(CSc2nnc(-c3ccncc3)o2)c1
3. CN(C)c1ccc(/C=C2\C(=O)Nc3ccccc32)cc1

# output
[65, 79, 85]

====

Biological target: Casein kinase I isoform delta (Homo sapiens)
Conditions: at 10 µM
Description: Millipore: Percentage of residual kinase activity of CSNK1D at 10uM relative to control. Control inhibitor: Jnk Inhibitor II at 100.0uM. Buffer: 8 mM MOPS pH 7.0, 0.2 mM EDTA
property label: residual activity (%)
One number for each entry, in %.

These solved cases illustrate the format of a correct answer.
COc1ccc(S(=O)(=O)N(CCO)c2ccccc2CN(C)C/C=C/c2ccc(Cl)cc2)cc1    66
NC(=O)c1ccc2[nH]c(-c3ccc(Oc4ccc(Cl)cc4)cc3)nc2c1    83

Consider the following items and state reported residual activity for each.
1. CC(C)n1cnc2c(NCc3ccccc3)nc(NCCCO)nc21
2. Cc1cc(Nc2nc(-c3ccccc3)nc3ccccc23)n[nH]1
3. O=[N+]([O-])c1ccc(-c2nc(-c3ccc(F)cc3)c(-c3ccncc3)[nH]2)cc1
4. Ic1cccc(CSc2nnc(-c3ccncc3)o2)c1

# output
22
51
4
75

====

Molecular target: Casein kinase II (Homo sapiens) (UniProt P67870+P68400+P19784);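 note: residual kinase activity expressed relative to control, in HEPES buffer at pH 7.6 with NaCl, EDTA, DTT and Triton X-100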
Sequence (P19784 whole entry, looked up): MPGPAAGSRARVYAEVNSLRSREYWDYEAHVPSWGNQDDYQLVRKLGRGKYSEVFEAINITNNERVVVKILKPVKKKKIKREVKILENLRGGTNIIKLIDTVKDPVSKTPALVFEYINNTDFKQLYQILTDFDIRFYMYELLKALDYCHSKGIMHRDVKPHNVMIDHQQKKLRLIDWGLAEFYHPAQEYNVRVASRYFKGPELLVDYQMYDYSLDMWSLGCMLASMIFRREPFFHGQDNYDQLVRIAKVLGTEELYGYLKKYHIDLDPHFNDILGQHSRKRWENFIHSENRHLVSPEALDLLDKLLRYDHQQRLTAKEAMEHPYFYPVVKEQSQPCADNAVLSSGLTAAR
Sequence (P67870 whole entry, looked up): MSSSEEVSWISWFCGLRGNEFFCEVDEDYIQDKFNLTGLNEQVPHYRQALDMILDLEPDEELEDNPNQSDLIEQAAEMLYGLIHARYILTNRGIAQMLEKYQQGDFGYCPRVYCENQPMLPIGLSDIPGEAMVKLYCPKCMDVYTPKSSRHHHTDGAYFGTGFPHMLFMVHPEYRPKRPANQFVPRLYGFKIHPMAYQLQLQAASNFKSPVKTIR
Sequence (P68400 whole entry, looked up): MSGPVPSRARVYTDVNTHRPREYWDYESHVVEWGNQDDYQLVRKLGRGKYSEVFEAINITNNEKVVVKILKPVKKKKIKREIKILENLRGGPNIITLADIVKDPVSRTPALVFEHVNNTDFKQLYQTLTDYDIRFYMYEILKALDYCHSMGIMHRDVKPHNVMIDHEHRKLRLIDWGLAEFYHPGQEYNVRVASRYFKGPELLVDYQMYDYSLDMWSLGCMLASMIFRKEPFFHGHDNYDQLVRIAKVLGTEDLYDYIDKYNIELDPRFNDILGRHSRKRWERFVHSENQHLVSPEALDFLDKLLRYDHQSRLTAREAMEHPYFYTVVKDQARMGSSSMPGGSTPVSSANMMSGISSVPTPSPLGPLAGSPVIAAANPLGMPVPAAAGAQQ
Conditions: at 1 µM
Description: Millipore: Percentage of residual kinase activity of CSNK2A1 at 1uM relative to control. Control inhibitor: Jnk Inhibitor II at 100.0uM. Buffer: 20 mM HEPES pH 7.6, 0.15 M NaCl, 0.1 mM EDTA, 5 mM DTT, 0.1% Triton X-100
// boundary case: residual activity equal to 90% maps to NOT MET; strictly smaller maps to MET

Answered examples (4):
CC#CC(=O)Nc1cc2c(Nc3ccc(F)c(Cl)c3)ncnc2cn1    MET
NC(=O)c1ccc2[nH]c(-c3ccc(Oc4ccc(Cl)cc4)cc3)nc2c1    NOT MET
Nc1nc(Nc2ccc(S(N)(=O)=O)cc2)nn1C(=S)Nc1c(F)cccc1F    NOT MET
COc1cc2ncnc(Nc3ccc(O)c(Br)c3)c2cc1OC    MET

Okay, next one:
# input Is residual activity of "O=C1Nc2cc(Br)ccc2/C1=C1/Nc2ccccc2/C1=N\O" strictly below 90%?
# output NOT MET

====

Give residual activity for every item shown.
Molecular target: Mast/stem cell growth factor receptor Kit (Homo sapiens)
Details: at 10 µM
Numbers only, in %.

These solved cases illustrate the format of a correct answer.
O=Nc1c(-c2c(O)[nH]c3ccccc23)[nH]c2ccccc12    2
O=c1cc(-c2cccc3c2Sc2ccccc2S3)oc(N2CCOCC2)c1    102
O=C1c2ccccc2-[n+]2ccc3c([nH]c4ccccc43)c21    97
CC[n+]1c(/C=C/N(C)c2ccccc2)n(-c2ccccc2)c2ccc(-c3nc4ccccc4s3)cc21    106
COc1cccc(-c2cc(=O)c3ccccc3o2)c1N    114

Consider the following items and state reported residual activity for each.
1. c1ccc(-c2n[nH]c3c2oc2ccccc23)cc1
2. O=[N+]([O-])c1ccc(-c2nc(-c3ccc(F)cc3)c(-c3ccncc3)[nH]2)cc1
3. O=C1NC(=O)/C(=C\c2ccc3nccnc3c2)S1
4. Ic1cccc(CSc2nnc(-c3ccncc3)o2)c1

# output
[1, 110, 102, 102]

Consider the following items and state reported residual activity for each.
1. CC(=O)c1ccc(N2CCOCC2)cc1O
2. O=c1c2ccccc2[nH]c(=S)n1CCN1CCC(=C(c2ccc(F)cc2)c2ccc(F)cc2)CC1

# output
101
89

====

Molecular target: Ribosomal protein S6 kinase alpha-5 (Homo sapiens) (UniProt O75582)
Sequence (O75582 whole entry, looked up): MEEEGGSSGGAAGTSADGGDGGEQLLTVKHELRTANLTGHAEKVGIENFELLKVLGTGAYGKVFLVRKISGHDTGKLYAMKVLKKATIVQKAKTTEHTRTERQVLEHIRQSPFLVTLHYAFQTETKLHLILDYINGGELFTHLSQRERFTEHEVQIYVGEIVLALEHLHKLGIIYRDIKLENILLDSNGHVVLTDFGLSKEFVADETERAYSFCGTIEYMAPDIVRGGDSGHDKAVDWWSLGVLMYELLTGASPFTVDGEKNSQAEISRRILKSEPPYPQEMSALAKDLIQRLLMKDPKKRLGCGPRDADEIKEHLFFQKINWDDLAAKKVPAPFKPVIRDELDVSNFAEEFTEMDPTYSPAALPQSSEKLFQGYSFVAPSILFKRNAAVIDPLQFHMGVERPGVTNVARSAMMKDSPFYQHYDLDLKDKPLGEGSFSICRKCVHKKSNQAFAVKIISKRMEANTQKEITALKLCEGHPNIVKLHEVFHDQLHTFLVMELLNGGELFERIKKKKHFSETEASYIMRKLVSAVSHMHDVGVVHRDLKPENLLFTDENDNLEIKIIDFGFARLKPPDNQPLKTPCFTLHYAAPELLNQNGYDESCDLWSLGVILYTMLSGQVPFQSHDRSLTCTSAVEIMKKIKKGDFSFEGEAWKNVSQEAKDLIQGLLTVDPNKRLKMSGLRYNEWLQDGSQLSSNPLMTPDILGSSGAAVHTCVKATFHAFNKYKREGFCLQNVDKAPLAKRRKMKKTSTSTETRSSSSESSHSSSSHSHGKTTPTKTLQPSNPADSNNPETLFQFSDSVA
Settings: at 1 µM
Give residual activity for every item shown.
Numbers only, in %.

These solved cases illustrate the format of a correct answer.
CCC(=O)Nc1ccc2ncnc(Nc3cccc(Br)c3)c2c1    113
CNc1cc2c(Nc3cccc(Br)c3)ncnc2cn1    133
Cn1nc2c3c(cccc31)C(=O)c1ccccc1-2    99
CN(C)c1ccc(/C=C2\C(=O)Nc3ccccc32)cc1    116
O=C1NC(=O)c2cc(Nc3ccc(F)cc3)c(Nc3ccc(F)cc3)cc21    128

Consider the following items and state reported residual activity for each.
1. COc1ccc(S(=O)(=O)N(CCO)c2ccccc2CN(C)C/C=C/c2ccc(Cl)cc2)cc1
2. O=C1Nc2ccc(Br)cc2/C1=C\c1cc2c([nH]1)CCCC2
3. CO[C@@H]1[C@H](N(C)C(=O)c2ccccc2)C[C@H]2O[C@]1(C)n1c3ccccc3c3c4c(c5c6ccccc6n2c5c31)C(=O)NC4
4. CCN(CC)CCCCN1c2ccccc2Oc2ccc(Cl)cc21
5. O=C1Nc2cc(Br)ccc2/C1=C1/Nc2ccccc2/C1=N\O
6. O=[N+]([O-])c1ccc(-c2nc(-c3ccc(F)cc3)c(-c3ccncc3)[nH]2)cc1
7. Nc1cccc(-c2cc3c(Oc4cccc(O)c4)ncnc3[nH]2)c1

# output
115
111
13
146
72
108
98

Consider the following items and state reported residual activity for each.
1. O=C(O)c1ccc2c3c1cccc3c(=O)n1c3ccccc3nc21
2. Cc1nc(-c2ccccc2)c(-c2ccncc2)o1
3. Oc1ccc(Nc2nc(-c3ccc(Cl)cc3)cs2)cc1
4. Oc1n[nH]c2nnc(-c3c(-c4ccccc4)nn4ccccc34)cc12
5. Cc1nc2cc3nc(-c4cccs4)cnc3cc2n1C
6. O=C(Nc1cccc(Nc2cc(Nc3cccc(C(F)(F)F)c3)ncn2)c1)C1CC1
7. Nc1ccc2ncnc(NCCc3ccc(Oc4ccccc4)cc3)c2c1
8. N#CC(C#N)=C(N)/C(C#N)=C/c1ccc(O)cc1

# output
98
99
97
109
129
124
109
122

Consider the following items and state reported residual activity for each.
1. Cc1ccc(NC2=CC(=O)c3sc(C)nc3C2=O)cc1
2. C[C@@H](N)[C@H]1CC[C@H](C(=O)Nc2ccncc2)CC1

# output
1: 106; 2: 90

# input Find the measured residual activity of "O=C1NC(=O)/C(=C\c2ccc3nccnc3c2)S1" and report it.
# output 123

====

Biological target: Focal adhesion kinase 1 (Homo sapiens)
Conditions: at 1 µM
property label: residual activity (%)
Numbers only, in %.

O=C(Nc1cccc(Nc2cc(Nc3cccc(C(F)(F)F)c3)ncn2)c1)C1CC1    130

Consider the following items and state reported residual activity for each.
1. CCC(=O)Nc1ccc2ncnc(Nc3cccc(Br)c3)c2c1
2. COc1ccc(C(=O)Nc2sc3c(c2C(N)=O)CCCC3)cc1OC
3. COc1cc2ncnc(N3CCN(C(=O)Nc4ccc(Oc5ccccc5)cc4)CC3)c2cc1OC
4. O=C1Nc2ccc(Br)cc2/C1=C\c1cc2c([nH]1)CCCC2

# output
1. 131
2. 119
3. 108
4. 78

Consider the following items and state reported residual activity for each.
1. Oc1ccc(-c2nc(-c3ccc(F)cc3)c(-c3ccncc3)[nH]2)cc1
2. CCN(CC)CCCCN1c2ccccc2Oc2ccc(Cl)cc21
3. CN(C)CCCn1cc(C2=C(c3c[nH]c4ccccc34)C(=O)NC2=O)c2ccccc21
4. O=C1NC(=O)/C(=C\c2ccc3nccnc3c2)S1
5. COc1cc2ncnc(Nc3ccc(Oc4ccccc4)cc3)c2cc1OC

# output
[117, 144, 133, 90, 72]

Consider the following items and state reported residual activity for each.
1. CC(C)n1cnc2/c(=N/c3cccc(Cl)c3)nc(NCCO)[nH]c21
2. Oc1c2ccccc2c2c3c(cccc13)N=N2
3. NC(=O)c1ccc2[nH]c(-c3ccc(Oc4ccc(Cl)cc4)cc3)nc2c1

# output
1. 46
2. 52
3. 91

====

Give residual activity for every item shown.
Biological target: Serine/threonine-protein kinase MRCK beta (Homo sapiens) (UniProt Q9Y5S2)
Sequence (Q9Y5S2 whole entry): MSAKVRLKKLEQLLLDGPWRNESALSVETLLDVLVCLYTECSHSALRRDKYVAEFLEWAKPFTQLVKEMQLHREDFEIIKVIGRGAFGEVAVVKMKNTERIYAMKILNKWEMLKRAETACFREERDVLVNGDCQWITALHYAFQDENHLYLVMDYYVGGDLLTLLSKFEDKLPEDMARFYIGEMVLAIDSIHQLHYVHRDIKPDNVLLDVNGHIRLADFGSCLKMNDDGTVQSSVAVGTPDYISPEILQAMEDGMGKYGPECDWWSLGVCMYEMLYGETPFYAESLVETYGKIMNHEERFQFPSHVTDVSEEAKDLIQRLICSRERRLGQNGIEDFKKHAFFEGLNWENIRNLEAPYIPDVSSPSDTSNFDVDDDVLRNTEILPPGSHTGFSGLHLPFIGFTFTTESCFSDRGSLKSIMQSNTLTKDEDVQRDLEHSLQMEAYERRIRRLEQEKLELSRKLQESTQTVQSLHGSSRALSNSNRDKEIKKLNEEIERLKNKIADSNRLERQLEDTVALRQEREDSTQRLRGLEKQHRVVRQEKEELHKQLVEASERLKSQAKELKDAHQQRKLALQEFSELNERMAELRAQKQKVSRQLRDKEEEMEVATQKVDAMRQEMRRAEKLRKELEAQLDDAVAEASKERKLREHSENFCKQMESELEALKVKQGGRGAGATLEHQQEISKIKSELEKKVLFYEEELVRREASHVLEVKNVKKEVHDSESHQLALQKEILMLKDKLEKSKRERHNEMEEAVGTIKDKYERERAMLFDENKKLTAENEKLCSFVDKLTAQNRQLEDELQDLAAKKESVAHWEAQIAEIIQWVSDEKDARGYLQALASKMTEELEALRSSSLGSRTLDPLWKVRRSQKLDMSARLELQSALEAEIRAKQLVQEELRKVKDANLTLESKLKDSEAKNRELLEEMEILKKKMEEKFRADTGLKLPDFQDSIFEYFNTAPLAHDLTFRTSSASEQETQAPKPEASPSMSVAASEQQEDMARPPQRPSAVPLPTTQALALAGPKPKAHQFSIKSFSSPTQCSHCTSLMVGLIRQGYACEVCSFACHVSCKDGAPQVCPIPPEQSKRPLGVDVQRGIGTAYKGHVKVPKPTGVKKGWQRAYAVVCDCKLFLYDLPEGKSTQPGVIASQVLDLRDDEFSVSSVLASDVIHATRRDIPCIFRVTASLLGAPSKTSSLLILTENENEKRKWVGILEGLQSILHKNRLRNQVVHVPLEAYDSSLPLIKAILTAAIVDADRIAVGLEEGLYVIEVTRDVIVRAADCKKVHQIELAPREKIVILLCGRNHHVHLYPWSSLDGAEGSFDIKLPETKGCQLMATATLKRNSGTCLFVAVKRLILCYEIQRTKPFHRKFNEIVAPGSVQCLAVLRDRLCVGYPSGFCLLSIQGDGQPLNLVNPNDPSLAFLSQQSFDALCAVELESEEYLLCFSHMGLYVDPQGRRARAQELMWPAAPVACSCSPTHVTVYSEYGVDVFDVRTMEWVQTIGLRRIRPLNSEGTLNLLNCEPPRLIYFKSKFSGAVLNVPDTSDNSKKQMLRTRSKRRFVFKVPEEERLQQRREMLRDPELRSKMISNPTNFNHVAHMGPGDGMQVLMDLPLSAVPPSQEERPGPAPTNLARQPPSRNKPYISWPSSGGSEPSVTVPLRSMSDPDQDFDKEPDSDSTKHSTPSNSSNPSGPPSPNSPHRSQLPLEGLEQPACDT
Settings: at 1 µM
Numbers only, in %.

These solved cases illustrate the format of a correct answer.
CC(C)n1cnc2/c(=N/c3cccc(Cl)c3)nc(NCCO)[nH]c21    85
Nc1nc(Nc2ccc(S(N)(=O)=O)cc2)nn1C(=S)Nc1c(F)cccc1F    8
O=C1NC(=O)/C(=C\c2ccc3nccnc3c2)S1    93

Consider the following items and state reported residual activity for each.
1. O=c1cc(-c2cccc3c2Sc2ccccc2S3)oc(N2CCOCC2)c1
2. COc1ccc(CNc2nc(N(CCO)CCO)nc3c2ncn3C(C)C)cc1
3. NC(=O)c1ccc2[nH]c(-c3ccc(Oc4ccc(Cl)cc4)cc3)nc2c1
4. O=C1Nc2ccc(Br)cc2/C1=C\c1cc2c([nH]1)CCCC2
5. Cc1cc2ncc(-c3ccccc3)nc2cc1C
6. N#C/C(=C(\N)Sc1ccc(N)cc1)c1ccccc1C(F)(F)F
7. Cn1cnc2cc3c(Nc4cccc(Br)c4)ncnc3cc21
8. COc1cccc(-c2cc(=O)c3ccccc3o2)c1N

# output
93
88
94
98
92
94
88
102
